# TESTED_TARGET: human RAR-related Orphan Receptor beta (RORb), RORB (gene 6096) (UniProt Q92753)
# Sequence (Q92753 whole entry, looked up): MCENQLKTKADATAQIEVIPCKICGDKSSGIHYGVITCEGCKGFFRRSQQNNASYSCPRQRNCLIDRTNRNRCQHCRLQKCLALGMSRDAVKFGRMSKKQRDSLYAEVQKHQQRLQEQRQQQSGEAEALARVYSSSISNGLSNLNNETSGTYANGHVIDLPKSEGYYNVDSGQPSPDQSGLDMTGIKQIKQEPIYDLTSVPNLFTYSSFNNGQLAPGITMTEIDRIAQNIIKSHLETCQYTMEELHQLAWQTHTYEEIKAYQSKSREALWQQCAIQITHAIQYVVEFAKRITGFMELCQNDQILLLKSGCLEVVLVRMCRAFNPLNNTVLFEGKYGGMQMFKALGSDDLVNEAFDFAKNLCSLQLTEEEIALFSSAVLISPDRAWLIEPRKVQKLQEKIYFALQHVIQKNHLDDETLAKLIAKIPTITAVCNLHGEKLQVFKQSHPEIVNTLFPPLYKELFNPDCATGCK
# PROCEDURE_DETAILS: ATG_RORb_TRANS: Attagene TRANS-FACTORIAL HepG2 Assay for human RAR-related Orphan Receptor beta (RORb) (AID 2283010)
Inconclusive results are not listed. Activity calls are given as the source filed them. The calls were made as follows: active = hit-call score of the fitted dose curve at least 0.9, where 1 is the maximum; inconclusive = response in the unintended direction; inactive = score below 0.9.
MEASURED_ENDPOINT: outcome

CC(C)C1(C)N=C(c2nc3ccccc3cc2C(=O)O)NC1=O (stereo not drawn): inactive
CCCCOC(=O)c1ccccc1C(=O)OCCCC: inactive
Cc1c(F)c(F)c(COC(=O)C2C(/C=C(\Cl)C(F)(F)F)C2(C)C)c(F)c1F (stereo not drawn): inactive

---

# Read-out: CD38, CD38 (gene 952)
# PROCEDURE_DETAILS: BSK_SAg_CD38: BioMAP Diversity Plus: SAg Assay for CD38 Biomarker Activity (AID 2283087)
# ASSAY_SETUP: primary human HUVEC with PBMC; actives raise or lower the signal
# Method: BSK_SAg is a cell-based, multiplexed-readout assay that uses umbilical vein endothelium and peripheral blood mononuclear cells, a human vascular primary cell co-culture, with measurements taken at 24 hours after chemical dosing in a 96-well plate.BSK_SAg_CD38 is one of 10 assay component(s) measured or calculated from the BSK_SAg assay. […] This assay endpoint, BSK_SAg_CD38, was analyzed with bidirectional fitting relative to DMSO as the negative control and baseline of activity. […]
Calls of active or inactive are those of the source. The calls were made as follows: active = hit-call score of the fitted dose curve at least 0.9, where 1 is the maximum; inactive = score below 0.9.
Pick one and only one: active, inactive

[in] I would be grateful if you could indicate the recorded call for CCOC(=O)C(Cl)Cc1cc(-n2nc(C)n(C(F)F)c2=O)c(F)cc1Cl (centres undefined) .
[out] inactive

[in] I would be grateful if you could indicate the recorded call for "O=C(O)c1nc(Cl)ccc1Cl" .
[out] inactive

[in] I would be grateful if you could indicate the recorded call for "CNC(=S)S" .
[out] active

[in] I would be grateful if you could indicate the recorded call for "COc1nc(C)nc(NC(=O)NS(=O)(=O)c2ccccc2CCC(F)(F)F)n1" .
[out] inactive

[in] I would be grateful if you could indicate the recorded call for C=CC1(C)OC(=O)N(c2cc(Cl)cc(Cl)c2)C1=O (centres undefined) .
[out] inactive

[in] I would be grateful if you could indicate the recorded call for CCCC1COC(Cn2cncn2)(c2ccc(Cl)cc2Cl)O1 (centres undefined) .
[out] inactive

[in] I would be grateful if you could indicate the recorded call for "COC(=O)c1ccccc1C(=O)OC" .
[out] inactive

[in] I would be grateful if you could indicate the recorded call for "CCNc1nc(Cl)nc(NCC)n1" .
[out] inactive

[in] I would be grateful if you could indicate the recorded call for COP(N)(=O)SC (centres undefined) .
[out] inactive

[in] I would be grateful if you could indicate the recorded call for "CCCCOC(=O)c1ccccc1C(=O)OCCCC" .
[out] inactive

[in] I would be grateful if you could indicate the recorded call for "COC(=O)C=C(C)OP(=O)(OC)OC" .
[out] inactive

[in] I would be grateful if you could indicate the recorded call for CC(C)C1(C)N=C(c2nc3ccccc3cc2C(=O)O)NC1=O (centres undefined) .
[out] inactive

[in] I would be grateful if you could indicate the recorded call for "CS/C(C)=N/OC(=O)N(C)SN(C)C(=O)O/N=C(\C)SC" .
[out] active

[in] I would be grateful if you could indicate the recorded call for "CCCN(CCC)c1c([N+](=O)[O-])cc(S(N)(=O)=O)cc1[N+](=O)[O-]" .
[out] active

[in] I would be grateful if you could indicate the recorded call for "CNC(=O)ON=CC(C)(C)SC" .
[out] inactive

[in] I would be grateful if you could indicate the recorded call for "CCNc1nc(Cl)nc(NC(C)C)n1" .
[out] inactive

[in] I would be grateful if you could indicate the recorded call for N#CC(CCc1ccc(Cl)cc1)(Cn1cncn1)c1ccccc1 (centres undefined) .
[out] inactive

[in] I would be grateful if you could indicate the recorded call for CCCCC(CC)COC(=O)c1ccccc1C(=O)OCC(CC)CCCC (centres undefined) .
[out] active

[in] I would be grateful if you could indicate the recorded call for Cc1c(F)c(F)c(COC(=O)C2C(/C=C(\Cl)C(F)(F)F)C2(C)C)c(F)c1F (centres undefined) .
[out] active
